The entries below pair compounds with IC50 values for UniProtKB P30969, as found in several publications.
Readout Type: IC50 (nM)

Cc1cc(C)cc(-c2[nH]c3ccccc3c2CCNCCCCc2ccc(NS(=O)(=O)C(C)C)cc2)c1; 220
Cc1cc(C)cc(-c2c(OCCC3CCC(C)CN3)c3cc([N+](=O)[O-])c(Cl)cc3[nH]c2=O)c1 (centres undefined); 63

(P) Oc1ccc(CCCCNCCc2c(-c3cc4ccccc4s3)[nH]c3ccccc23)cc1
(Q) CCCn1c(CC)nc(CN2CCN(c3cccc4[nH]c(-c5ccc(C(C)(C)C)cc5)nc34)CC2)c1C
(R) CCNC(=O)Nc1ccc(CCCCNCCc2c(-c3cc(C)cc(C)c3)[nH]c3ccccc23)cc1
(S) COc1ccc(CNS(=O)(=O)c2ccc3c(c2)nc(CCNC(=O)NC(C)(C)C)n3Cc2ccccc2)cc1
(T) Cc1ncoc1CN1CCN(c2cccc3[nH]c(-c4ccc(C(C)(C)C)cc4)nc23)CC1
(Q) Put the items in order so that reported IC50 rises from first to last. Reply with the item labels sorted in the order that was asked for.
(A) R, Q, S, T, P

* * *

Target: Gonadotropin-releasing hormone receptor (Rattus norvegicus, UniProt P30969)
Sequence (P30969 whole entry): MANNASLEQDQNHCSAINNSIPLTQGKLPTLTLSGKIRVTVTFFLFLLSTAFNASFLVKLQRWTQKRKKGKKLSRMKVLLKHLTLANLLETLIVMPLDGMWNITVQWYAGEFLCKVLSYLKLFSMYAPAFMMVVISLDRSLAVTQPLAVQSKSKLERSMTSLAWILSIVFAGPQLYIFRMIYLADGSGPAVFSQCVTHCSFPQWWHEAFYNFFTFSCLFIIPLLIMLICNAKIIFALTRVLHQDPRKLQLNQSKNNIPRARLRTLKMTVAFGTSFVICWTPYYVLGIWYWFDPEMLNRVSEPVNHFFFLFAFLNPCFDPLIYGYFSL
The entries below pair compounds with IC50 values for Gonadotropin-releasing hormone receptor (Rattus norvegicus, UniProt P30969), as found in several publications.
Readout Type: IC50 (nM)

(A) Cc1cc(-c2c(O)nc3cc(Cl)c(C(=O)Nc4ncccn4)cc3c2OCC[C@@H]2CCN2)cc(C)c1C
(B) CCSc1nc2cc(S(=O)(=O)NCc3ccc(OC)cc3)ccc2n1Cc1ccccc1
(C) CC(=O)Nc1ccc(CCCCNCCc2c(-c3cc(C)cc(C)c3)[nH]c3ccccc23)cn1
(Q) Could you arrange the 3 compounds above by IC50, starting with the largest number? Reply with the item labels sorted in the order that was asked for.
(A) B, C, A
(B: 940 nM, C: 120 nM, A: 4 nM)

* * *

The entries below pair molecules with IC50 values for Gonadotropin-releasing hormone receptor (Rattus norvegicus, UniProt P30969), as found in several publications.
Readout Type: IC50 (nM)

Consider the worked cases shown below.
CNS(=O)(=O)Nc1ccc(CCCCNCCc2c(-c3cc(C)cc(C)c3)[nH]c3ccccc23)cc1; 47
O=S(=O)(NCc1ccc(F)cc1)c1ccc2c(c1)nc(SCc1ccncc1)n2Cc1ccccc1; 240
Cc1cc(C)cc(-c2c(O)nc3cc(Cl)c([N+](=O)[O-])cc3c2OCCC2CCCCN2)c1 (single isomer, unassigned); 10
Cc1cccc(-c2[nH]c3ccccc3c2CCNCCCCc2ccc(O)cc2)c1C; 900
CCCn1c(SCc2cc([N+](=O)[O-])ccc2OC)nc2cc(NC(=O)NC(C)(C)C)cc(C(=O)NC(C)(C)C)c21; 490
CCc1cc(CN2CCN(c3cccc4[nH]c(-c5ccc(C(C)(C)C)cc5)nc34)CC2)nn1C; 350
Cc1cc(C)cc(-c2[nH]c3ccccc3c2CCNCCCCc2ccc(NS(C)(=O)=O)cc2)c1; 170
Cc1cc(C)cc(-c2[nH]c3ccccc3c2CCNCCc2cccnc2)c1; 200

(a) CCCn1c(SCc2cc([N+](=O)[O-])ccc2OC)nc2cc(NC(=O)NC(C)(C)C)cc(C(=O)NCCc3ccccn3)c21
(b) COc1ccc([N+](=O)[O-])cc1CSc1nc2cc(NC(=O)NC(C)(C)C)ccc2n1Cc1ccncc1
(c) Cc1nn(C)c(C)c1CN1CCN(c2cccc3[nH]c(-c4ccc(C(C)(C)C)cc4)nc23)CC1
(Q) Highest IC50 first, then in falling order down to the smallest. Reply with the item labels sorted in the order that was asked for.
(A) c, b, a

(a) Cn1cnc(CN2CCN(c3cccc4[nH]c(-c5ccc(C(C)(C)C)cc5)nc34)CC2)c1
(b) Cc1nc(CN2CCN(c3cccc4[nH]c(-c5ccc(C(C)(C)C)cc5)nc34)CC2)cn1C
(Q) // select label with min value of measured IC50 from [ a , b ] I would appreciate it if you answered with the label of your choice.
(A) b

(I) Cc1cc(-c2c(OCC[C@@H]3CCN3)c3cc(C(=O)Nc4ccncn4)c(Cl)cc3[nH]c2=O)cc(C)c1C
(II) Cc1cc(C)cc(-c2[nH]c3ccccc3c2CCNCCCCc2ccncc2)c1
(Q) // select label with min value of measured IC50 from [ I , II ] I would appreciate it if you answered with the label of your choice.
(A) I
(I: 4 nM, II: 16 nM)

* * *

The entries below pair molecules with IC50 values for Gonadotropin-releasing hormone receptor (Rattus norvegicus), as found in several publications.
Target: Gonadotropin-releasing hormone receptor (Rattus norvegicus)
Sequence (P30969 whole entry): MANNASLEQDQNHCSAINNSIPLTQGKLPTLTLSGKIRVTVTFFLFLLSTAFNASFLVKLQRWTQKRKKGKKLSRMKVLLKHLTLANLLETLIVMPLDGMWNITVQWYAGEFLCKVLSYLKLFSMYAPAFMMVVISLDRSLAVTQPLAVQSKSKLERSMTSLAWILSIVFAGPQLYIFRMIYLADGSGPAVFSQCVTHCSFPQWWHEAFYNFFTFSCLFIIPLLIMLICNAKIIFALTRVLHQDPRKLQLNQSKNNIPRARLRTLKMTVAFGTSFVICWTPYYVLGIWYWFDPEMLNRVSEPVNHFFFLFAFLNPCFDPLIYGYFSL
Readout Type: IC50 (nM)

Consider the worked cases shown below.
Cc1cc(CN2CCN(c3cccc4[nH]c(-c5ccc(C(C)(C)C)cc5)nc34)CC2)n(C)n1; 310
CCCn1c(SCc2cc([N+](=O)[O-])ccc2OC)nc2cc(NC(=O)NC(C)(C)C)cc(C(=O)OC)c21; 280

(A) Cc1cc(C)cc(-c2[nH]c3ccccc3c2CCNCCCCc2ccc(N)cc2)c1
(B) CCCn1c(SCc2cc([N+](=O)[O-])ccc2OC)nc2cc(NC(=O)NC(C)(C)C)cc(C(=O)N3CCCC3)c21
(C) Cc1cc(C)cc(-c2[nH]c3ccccc3c2CCNCCCCc2ccc([N+](=O)[O-])cc2)c1
(D) CC(C)(C)CC(=O)NCCc1nc2cc(S(=O)(=O)NCc3ccc(F)cc3)ccc2n1Cc1ccccc1
(E) Cc1cc(C)cc(-c2[nH]c3ccccc3c2CCNCCCCc2cccnc2)c1
(Q) Highest IC50 first, then in falling order down to the smallest. Reply with the item labels sorted in the order that was asked for.
(A) D, C, A, B, E

* * *

The entries below pair compounds with pIC50 values for Gonadotropin-releasing hormone receptor (Rattus norvegicus, UniProt P30969), as found in several publications.
pIC50: −log10 of the molar value.
Readout Type: pIC50

Cc1cc(C)cc(-c2c(O)nc3cc(Cl)c([N+](=O)[O-])cc3c2OCCC2NCCCC2C)c1 (stereo unspecified); 7.35
CNC(=O)Nc1ccc(-c2sc3c(c2CN(C)Cc2ccccc2)c(=O)c(C(=O)C(C)C)cn3Cc2c(F)cccc2F)cc1; 6.70
CCCn1cnc(CN2CCN(c3cccc4[nH]c(-c5ccc(C(C)(C)C)cc5)nc34)CC2)c1C; 7.33
CCOc1nc2cc(S(=O)(=O)NCc3ccc(F)cc3)ccc2n1Cc1cccc(Cl)c1; 5.72
CCOc1nc2cc(S(=O)(=O)NCc3ccc(F)cc3)ccc2n1Cc1ccccc1; 6.33
CCCn1c(SCc2cc([N+](=O)[O-])ccc2OC)nc2cc(NC(=O)NC(C)(C)C)cc(C(=O)NCCCN(C)Cc3ccccc3)c21; 7.68
CCCn1c(CC)nc(C)c1CN1CCN(c2cccc3[nH]c(-c4ccc(C(C)(C)C)cc4)nc23)CC1; 6.92
CC(C)(C)c1ccc(-c2nc3c(N4CCN(Cc5cnc[nH]5)CC4)cccc3[nH]2)cc1; 6.54

(1) CCCn1c(SCc2cc([N+](=O)[O-])ccc2OC)nc2cc(NC(=O)NC(C)(C)C)cc(C(=O)NCc3ccccn3)c21
(2) CCn1c(SCc2cc([N+](=O)[O-])ccc2OC)nc2cc(NC(=O)NC(C)(C)C)ccc21
(Q) // select label with min value of measured pIC50 from [ 1 , 2 ] I would appreciate it if you answered with the label of your choice.
(A) 2

(P) O=C(NCCc1nc2cc(S(=O)(=O)NCc3ccc(F)cc3)ccc2n1Cc1ccccc1)Nc1ccccc1F
(Q) Cc1cccc(-c2[nH]c3ccccc3c2CCNCCCCc2ccc(O)cc2)c1
(R) COc1ccc(-c2[nH]c3ccccc3c2CCNCCCCc2ccc(O)cc2)cc1OC
(S) O=S(=O)(NCc1ccc(F)cc1)c1ccc2c(c1)nc(OCCN1CCOCC1)n2Cc1ccccc1
(T) O=S(=O)(NCc1ccc(F)cc1)c1ccc2c(c1)nc(SCCNCc1ccccc1)n2Cc1ccccc1
(Q) Highest pIC50 first, then in falling order down to the smallest. Reply with the item labels sorted in the order that was asked for.
(A) P, Q, T, R, S
(P: 7.28, Q: 6.70, T: 6.28, R: 5.70, S: 5.49)

(a) Cc1cc(C)cc(-c2c(O)nc3cc(Cl)c([N+](=O)[O-])cc3c2OCC[C@@H]2Cc3ccccc3CN2)c1
(b) CCCn1c(SCc2cc([N+](=O)[O-])ccc2OC)nc2cc(NC(=O)NC(C)(C)C)cc(C(=O)NCc3ccncc3)c21
(Q) When a and b are compared, which has the higher number for pIC50? I would appreciate it if you answered with the label of your choice.
(A) b
(b: 7.46, a: 7.15)

(P) COCCn1c(SCc2cc([N+](=O)[O-])ccc2OC)nc2cc(NC(=O)NC(C)(C)C)ccc21
(Q) CC(C)NC(=O)NCCc1nc2cc(S(=O)(=O)NCc3ccc(F)cc3)ccc2n1Cc1ccccc1
(Q) When P and Q are compared, which has the higher number for pIC50? I would appreciate it if you answered with the label of your choice.
(A) Q
